target_entity: IGP1 (IGP1/CORK1) ectodomain (Arabidopsis thaliana, UniProt F4I3K3)
protocol_description: ITC
experimental_context: purified ectodomain; ligand in LRR domain pocket, three subsites; N=1
pKd: −log10 of the molar value.

molecule | target_entity | pKd
OC[C@H]1O[C@@H](O[C@H]2[C@H](O)[C@@H](O)[C@H](O[C@H]3[C@H](O)[C@@H](O)C(O)O[C@@H]3CO)O[C@@H]2CO)[C@H](O)[C@@H](O)[C@@H]1O (stereo partly shown) | IGP1 (IGP1/CORK1) ectodomain (Arabidopsis thaliana, UniProt F4I3K3) | ~6.00
